# Test system: CAKI-1 renal
# ASSAY_SUMMARY: NCI tumour cell line growth inhibition, 48 h
RECORDED_ENDPOINT: TGI

Take a look at these entries with their results.
CSc1nc(Cl)c2c(n1)Sc1ncnn1C2O (stereo unspecified) ... 25.4 µM
Cc1ccc(-c2cn3c(nc4ccccc43)c(C)n2)cc1 ... > 100 µM
CNCc1ccc(C)c(NC(=O)c2ccc(Nc3nc(-c4ccccc4)c4ccccc4n3)cc2)c1 ... 3.57 µM
Cc1ccc(S(=O)(=O)NC(CCCCN)C(=O)CCl)cc1 (stereo unspecified) ... > 100 µM

stdin: Entry under review: C=C(Cl)C(Cl)(CBr)CCC(Cl)C(C)C (stereo unspecified) . Reported TGI?
stdout: 5.74 µM

stdin: Moving on to CC(C)OP(=O)(OC(C)C)c1ncn(-c2ccc([N+](=O)[O-])cc2)n1
stdout: > 100 µM

stdin: Moving on to CC(C)(C)OC(=O)N(CCCN)CCCCN(CCCN)C(=O)OC(C)(C)C
stdout: > 100 µM

stdin: Moving on to O=c1[nH]c2cccccc-2c1-c1nc2ccccc2[nH]1
stdout: > 100 µM

stdin: Moving on to CCCCCCCCCCCCOC1C(C(COC2OC(C(O)CO)C3OC(C)(C)OC23)OC(=O)Nc2ccc([N+](=O)[O-])cc2)OC2OC(C)(C)OC21 (stereo unspecified)
stdout: 7.28 µM

stdin: Moving on to CCOC(=O)c1ccccc1NC(c1ccccc1)c1ccc2cccnc2c1O (stereo unspecified)
stdout: > 100 µM

stdin: Moving on to CC(=S)NC1C(Oc2ccc3c(C)cc(=O)oc3c2)OC(CO)C(O)C1O (stereo unspecified)
stdout: > 100 µM

----------
# Test system: MALME-3M melanoma
# ASSAY_SUMMARY: NCI tumour cell line growth inhibition, 48 h
compounds and their reported TGI

N#CC1=C(N)Oc2c(ccc3ccccc23)C1c1ccccc1Cl (stereo unspecified) ... 22.9 µM
CCOc1ccccc1Nc1nc(C)c(C(=O)CC(=O)C(=O)Nc2ccccc2)s1 ... > 100 µM
COc1ccc(/C=N/NC(=O)c2ccccc2Nc2ccccc2C(=O)N/N=C/c2ccc(OC)c(OC)c2)cc1OC ... > 100 µM

Read the next record carefully.
stdin: What TGI appears in the records for this compound with MALME-3M melanoma? Cc1[nH]c(=O)nc2c1C(=O)N(C(C)C)C(NC(C)C)S2 (stereo unspecified)
stdout: > 100 µM

----------
# System: NCI-H522 lung
# ASSAY_SUMMARY: NCI tumour cell line growth inhibition, 48 h
RECORDED_ENDPOINT: TGI (µM)
Response body: numeric value in µM, unit text excluded.

Take a look at these entries with their results.
O=C(/C=C/CN1CCCCC1)Nc1cc2c(Nc3ccc(F)c(Cl)c3F)ncnc2cc1OCCOC(F)F ... 1.8
COc1cc(C2c3cc4c(c(O)c3C(=O)C3CCC(=O)N32)OCO4)cc(OC)c1OC (stereo not given) ... 38.9
CN1CCN(Cc2ccc(NC(=O)c3cncc(C#Cc4c(N)ncc5ccc(F)cc45)c3)cc2C(F)(F)F)CC1 ... 11.5
CN(C)CCCN1c2ccc3ccccc3c2Sc2cccc(Cl)c21 ... 10.5
CC[N+]1(C)CCC(O)(/C=C/c2ccccc2)C(C(=O)/C=C/c2ccccc2)C1 (stereo not given) ... 3.78
C[C@H]1C(=O)C2=C[C@H]1CCC(=O)[C@]1(C)CCCC(C)(C)[C@H]1C[C@H]2O ... 20.6

stdin: Entry under review: O=c1[nH]c2cccccc-2c1-c1nc2ccccc2[nH]1 . Reported TGI?
stdout: 42.3
